Recorded solubility values for a group of molecules are listed next.
- measurement-description: physchem
- measurement-conditions: pH 7, Solubility Conc.
- Protocol: From a stock solution in vehicle, either H2O or 10 mM phosphate, containing 1 mg (as weighed) compound per ml, 8-11 aliquots are withdrawn and pH-adjusted individually with HCl/NaOH, to cover the whole pH range.
Positions of bridges follow the written chain, without caps; N, C: chain ends. Non-standard residues stand in square brackets, D forms with d. Residues, ends and D or L forms follow the SMILES beside them. Groups on a side chain read outwards from the residue. *: point of attachment. Lys(CH2CO2H)2 = N[C@@H](CCCCN(CC(=O)O)CC(=O)O)C(=O)O; X1 = O=C(O)CCCCCCCCCCCCCCCCC(=O)NCCOCCOCCN*; C17 diacid = O=C(O)CCCCCCCCCCCCCCCC(=O)*; C16 diacid = O=C(O)CCCCCCCCCCCCCCC(=O)*; Orn = NCCC[C@H](N)C(=O)O; AEEA = NCCOCCOCC(=O)O
Could you give me the number in µM? Just the number is fine.

For orientation, consider the following solved cases.
molecule | unit-annotation | solubility
CC(=O)N[C@H]1CCCCNC(=O)C[C@@H](C(=O)N2CCC[C@H]2C(=O)N[C@@H](CO)C(=O)N[C@@H](Cc2c[nH]cn2)C(=O)N[C@@H](CCC(=O)O)C(=O)N[C@@H](CCCCN(CC(=O)O)CC(=O)O)C(=O)N[C@@H](CCCCNC(=O)COCCOCCNC(=O)CCCCCCCCCCCCCCCC(=O)O)C(N)=O)NC(=O)[C@H](Cc2c[nH]c3ccccc23)NC(=O)[C@H](CCCNC(=N)N)NC(=O)[C@@H](Cc2ccccc2)NC(=O)[C@H](Cc2c[nH]cn2)NC1=O [Example 49] (Ac-KH[dF]RWDPSHE[Lys(CH2CO2H)2]K([AEEA-C17 diacid])-NH2; lactam 1-6) | µM | 462
CC(=O)N[C@H]1CCCCNC(=O)C[C@@H](C(=O)N2CCC[C@H]2C(=O)N2CCC[C@H]2C(=O)N[C@@H](Cc2c[nH]cn2)C(=O)N[C@@H](CCC(=O)O)C(=O)N[C@@H](CCCCN(CC(=O)O)CC(=O)O)C(=O)N[C@@H](CCCCNC(=O)COCCOCCNC(=O)CCCCCCCCCCCCCCCC(=O)O)C(N)=O)NC(=O)[C@H](Cc2c[nH]c3ccccc23)NC(=O)[C@H](CCCNC(=N)N)NC(=O)[C@@H](Cc2ccccc2)NC(=O)[C@H](Cc2c[nH]cn2)NC1=O [Example 44] (Ac-KH[dF]RWDPPHE[Lys(CH2CO2H)2]K([AEEA-C17 diacid])-NH2; lactam 1-6) | µM | 430
CC(=O)N[C@H]1CCCNC(=O)C[C@@H](C(=O)N2CCC[C@H]2C(=O)N2CCC[C@H]2C(=O)N[C@@H](Cc2c[nH]cn2)C(=O)N[C@@H](CCC(=O)O)C(=O)N[C@@H](CCCCN(CC(=O)O)CC(=O)O)C(=O)N[C@@H](CCCCNC(=O)COCCOCCNC(=O)CCCCCCCCCCCCCCC(=O)O)C(N)=O)NC(=O)[C@H](Cc2c[nH]c3ccccc23)NC(=O)[C@H](CCCNC(=N)N)NC(=O)[C@@H](Cc2ccccc2)NC(=O)[C@H](Cc2c[nH]cn2)NC1=O [Example 51] (Ac-[Orn]H[dF]RWDPPHE[Lys(CH2CO2H)2]K([AEEA-C16 diacid])-NH2; lactam 1-6) | µM | 442
CC(=O)N[C@H]1CCCNC(=O)C[C@@H](C(=O)N2CCC[C@H]2C(=O)N2CCC[C@H]2C(=O)N[C@@H](CCCNC(=N)N)C(=O)N[C@@H](CCC(=O)O)C(=O)N[C@@H](CCCCN(CC(=O)O)CC(=O)O)C(=O)N[C@@H](CO)C(=O)N[C@@H](CO)C(=O)NCCOCCOCCNC(=O)CCCCCCCCCCCCCCCCC(=O)O)NC(=O)[C@H](Cc2c[nH]c3ccccc23)NC(=O)[C@H](CCCNC(=N)N)NC(=O)[C@@H](Cc2ccccc2)NC(=O)[C@H](Cc2c[nH]cn2)NC1=O [Example 50] (Ac-[Orn]H[dF]RWDPPRE[Lys(CH2CO2H)2]SS-X1; lactam 1-6) | µM | 92

Please find the next molecule below.
**Q:** Item under review: CC(=O)N[C@H]1CCCNC(=O)C[C@@H](C(=O)N2CCC[C@H]2C(=O)N2CCC[C@H]2C(=O)N[C@@H](CCCNC(=N)N)C(=O)N[C@@H](CCC(=O)O)C(=O)N[C@@H](CCCCN(CC(=O)O)CC(=O)O)C(=O)N[C@@H](CCCCNC(=O)COCCOCCNC(=O)CCCCCCCCCCCCCCC(=O)O)C(N)=O)NC(=O)[C@H](Cc2c[nH]c3ccccc23)NC(=O)[C@H](CCCNC(=N)N)NC(=O)[C@@H](Cc2ccccc2)NC(=O)[C@H](Cc2c[nH]cn2)NC1=O [Example 42] (Ac-[Orn]H[dF]RWDPPRE[Lys(CH2CO2H)2]K([AEEA-C16 diacid])-NH2; lactam 1-6) . Reported solubility?
**A:** 449
